target: human glucagon receptor (human, UniProt P47871 26-477); experiment: cell-based or functional assay
measured-attribute: cAMP EC50 (1.0% HSA)

Example results:
binder="YXEGTXTSDXSIXLDXKAQXEXIXXLIEGGKSSGAPPPS (Aib2, αMeF(2F)6, 4Pal10, αMeL13, Orn16, Aib20, 2ClPhe22, D-Glu24, αMeY25; acylated K17, K31 (groups as in name); C-terminal amide)" measurement="> 9.95 µM"
binder="YXEGTXTSDXSIXLDXKAQXEFIXXLIEGGPSSGAPPPSK (Aib2, αMeF(2F)6, 4Pal10, αMeL13, Orn16, Aib20, D-Glu24, αMeY25; acylated K17, K40 (groups as in name); C-terminal amide)" measurement="> 9.95 µM"

We next turn to a different binder, shown below.
Prompt: Would you kindly share the measured cAMP EC50 (1.0% HSA) for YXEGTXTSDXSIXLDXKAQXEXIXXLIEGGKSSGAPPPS (Aib2, αMeF(2F)6, Ac5c10, αMeL13, Orn16, Aib20, αMeF22, D-Glu24, αMeY25; acylated K17, K31 (groups as in name); C-terminal amide) ?
Response: > 9.95 µM
